biological target: RAT 5-LIPOXYGENASE (Rattus norvegicus); construct: A suspension of rat neutrophils in buffer; endogenous in cells; assay: Biosynthesis of 5-HETE by rat polymorphonuclear leukocytes in vitro (inhibition of rat 5-lipoxygenase); conditions: rat neutrophils, A23187, 3 minutes at 30° C.; concentration at which 50% inhibition is observed; read-out: INHIBITION OF RAT 5-LIPOXYGENASE, I50
Sequence (P12527 whole entry): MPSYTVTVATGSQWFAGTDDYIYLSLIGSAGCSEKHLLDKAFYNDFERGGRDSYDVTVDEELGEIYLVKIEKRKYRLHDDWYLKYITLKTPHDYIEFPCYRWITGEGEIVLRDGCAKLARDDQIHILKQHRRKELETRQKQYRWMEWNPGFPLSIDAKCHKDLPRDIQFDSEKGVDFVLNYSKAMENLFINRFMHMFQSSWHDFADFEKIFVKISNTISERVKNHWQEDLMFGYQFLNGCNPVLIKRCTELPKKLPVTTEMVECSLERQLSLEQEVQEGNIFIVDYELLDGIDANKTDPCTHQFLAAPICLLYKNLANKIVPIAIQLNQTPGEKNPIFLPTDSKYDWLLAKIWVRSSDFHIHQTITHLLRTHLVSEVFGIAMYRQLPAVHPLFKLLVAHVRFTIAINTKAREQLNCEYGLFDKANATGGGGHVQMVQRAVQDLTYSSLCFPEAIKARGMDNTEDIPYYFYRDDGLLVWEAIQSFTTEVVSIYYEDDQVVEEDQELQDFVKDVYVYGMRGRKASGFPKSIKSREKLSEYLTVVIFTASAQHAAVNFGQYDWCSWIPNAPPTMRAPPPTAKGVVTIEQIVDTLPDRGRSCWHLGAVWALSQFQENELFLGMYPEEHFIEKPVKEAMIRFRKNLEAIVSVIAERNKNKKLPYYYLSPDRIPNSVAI
I'd appreciate it if you marked entries fulfilled when IC50 is lower than 2 µM and not fulfilled when it is not.

Identify whether the compound C=CCOc1ccc(CC(=O)N(C)CCc2ccccc2)cc1Cl records IC50 below 2 µM.
not fulfilled

Identify whether the compound CN(CCc1ccccc1)C(=O)Cc1ccc(OCCc2ccccc2)c(Cl)c1 records IC50 below 2 µM.
not fulfilled

Identify whether the compound C=CCOc1ccc(CC(=O)N(C)Cc2ccccc2)cc1Cl records IC50 below 2 µM.
not fulfilled

Identify whether the compound C=CCOc1ccc(CC(=O)N(CC(=O)OCC)Cc2ccccc2)cc1Cl records IC50 below 2 µM.
not fulfilled

Identify whether the compound C=CCOc1ccc(CC(=O)N(C)CC(O)c2ccccc2)cc1Cl (stereo not drawn) records IC50 below 2 µM.
fulfilled

Identify whether the compound C#CCOc1ccc(CC(=O)N[C@H](Cc2ccccc2)C(=O)OC)cc1Cl records IC50 below 2 µM.
fulfilled
